experiment: qHTS for Inhibitors of human tyrosyl-DNA phosphodiesterase 1 (TDP1): qHTS in cells in presence of CPT; settings: chicken DT40 Tdp1-/-;hTDP1 cells + 20 nM CPT, ATP luminescence, 48 h; series mostly up to 46.2 µM; further: nearly all actives have a fitted effect of over 55% in size
Among all 420,000 compounds or so, about 50,000 (12%) were called active. Inconclusive results (about 26%) are left out. The call rests on the fitted dose curve; in most records, active means well fitted inhibition curve with a large enough effect; inconclusive means small, poorly fitted or top-dose-only effect; inactive means flat fitted curve, though single readings scatter. Only a selection was taken, and actives are over-represented in it overall.
# output must be one of y for active, n for inactive

Reference set (3 entries):
{"columns": ["Molecule", "Discrete label"],
 "data": [
  ["COCCCC1CCN(C(=O)C2CCC(=O)N(C3CCCCCC3)C2)CC1 (stereo unspecified)", "n"],
  ["CC1(c2cccc(N)c2)OCCO1", "n"],
  ["Cc1nnc(SCc2cc(=O)c3cc(F)ccc3[nH]2)n1C", "n"]
]}

Turning now to a further record.
Call for entry Cc1ccc(CSCC(=O)N(C)CC(=O)Nc2cccc(F)c2)cc1 :
n
